src = patent US20200255533A1

biological target: human TNF (human, UniProt P01375 77-233); experiment: SPR, scFv
Sequence (P01375 77-233 limits assumed): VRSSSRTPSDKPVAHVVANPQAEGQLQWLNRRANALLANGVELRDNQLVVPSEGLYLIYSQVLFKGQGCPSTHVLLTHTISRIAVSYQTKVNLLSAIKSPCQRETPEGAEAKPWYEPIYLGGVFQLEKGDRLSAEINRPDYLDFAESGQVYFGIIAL
PARAMETER: Kd (nM)
Provide the reading as a plain figure in nM.

Q: Which Kd reading was recorded for the binder Vκ3/VH4 consensus (T24K, T84S) λ-capped (TNF-specific scFv) (scFv, scFv; also called Vκ3/VH4mut) scFv: DIVLTQSPATLSLSPGERATLSCQASQSISDWLAWYQQKPGQAPRLLIYGASRLASGVPARFSGSGSGTDFTLTISSLEPEDFAVYYCQQGWSDSYVDNLFGGGTKLTVLGGGGGSGGGGSGGGGSGGGGSQVQLQESGPGLVKPSETLSLTCKVSGFSLSSGAMSWIRQPPGKGLEWIGVIISSGATYYASWAKGRVTISVDSSKNQFSLKLSSVTAADTAVYYCARGGPDDSNSMGTFDPWGQGTLVTVSS ?
A: 0.0793

Q: Could you tell me which Kd is on file for Vκ3/VH4 consensus λ-capped (TNF-specific scFv) (scFv, scFv) scFv: DIVLTQSPATLSLSPGERATLSCQASQSISDWLAWYQQKPGQAPRLLIYGASRLASGVPARFSGSGSGTDFTLTISSLEPEDFAVYYCQQGWSDSYVDNLFGGGTKLTVLGGGGGSGGGGSGGGGSGGGGSQVQLQESGPGLVKPSETLSLTCTVSGFSLSSGAMSWIRQPPGKGLEWIGVIISSGATYYASWAKGRVTISVDTSKNQFSLKLSSVTAADTAVYYCARGGPDDSNSMGTFDPWGQGTLVTVSS ?
A: 0.119

Q: Item Vκ1/VH4 consensus (T24K, T84S) λ-capped (TNF-specific scFv) (scFv, scFv; also called Vκ1/VH4mut; mutant variant of Vκ1/VH4) scFv: DIQMTQSPSSLSASVGDRVTITCQASQSISDWLAWYQQKPGKAPKLLIYGASRLASGVPSRFSGSGSGTDFTLTISSLQPEDFATYYCQQGWSDSYVDNLFGGGTKLTVLGGGGGSGGGGSGGGGSGGGGSQVQLQESGPGLVKPSETLSLTCKVSGFSLSSGAMSWIRQPPGKGLEWIGVIISSGATYYASWAKGRVTISVDSSKNQFSLKLSSVTAADTAVYYCARGGPDDSNSMGTFDPWGQGTLVTVSS has what recorded Kd?
A: 0.043

Continuing:
Q: Endpoint output: Kd of Vκ1/VH4 consensus λ-capped (TNF-specific scFv) (scFv, scFv; also called capped Vκ1/VH4 consensus molecule) scFv: DIQMTQSPSSLSASVGDRVTITCQASQSISDWLAWYQQKPGKAPKLLIYGASRLASGVPSRFSGSGSGTDFTLTISSLQPEDFATYYCQQGWSDSYVDNLFGGGTKLTVLGGGGGSGGGGSGGGGSGGGGSQVQLQESGPGLVKPSETLSLTCTVSGFSLSSGAMSWIRQPPGKGLEWIGVIISSGATYYASWAKGRVTISVDTSKNQFSLKLSSVTAADTAVYYCARGGPDDSNSMGTFDPWGQGTLVTVSS . Value?
A: 0.0533
